Test system: JNK1 mRNA
Protocol Summary: Northern assay, JNK1 mRNA expression in A549 cells
Assay type: cell-based, human
Condition Description: JNK1 mRNA, t = 48 h; 300 nM for initial 20 hours then 200 nM for 4 hours
Readout Kind: RNA % Inhibition

Fill in the blank: the reported RNA % Inhibition of 15351 (antisense CTCTCTGTAGGCCCGCTTGG; wingmer, 5' P=O 2'-MOE, chemistry not fully specified) [compound 15351] is ____. > 70%

Fill in the blank: the reported RNA % Inhibition of 15350 (antisense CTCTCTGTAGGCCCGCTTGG; wingmer, 3' P=O 2'-MOE, chemistry not fully specified) [compound 15350] is ____. 50.8%

Fill in the blank: the reported RNA % Inhibition of 15348 (antisense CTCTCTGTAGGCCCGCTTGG; wingmer, 5' 2'-MOE, phosphorothioate, chemistry not fully specified) [compound 15348] is ____. > 70%

Fill in the blank: the reported RNA % Inhibition of 15347 (antisense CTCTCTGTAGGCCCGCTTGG; gapmer, 2'-MOE P=O wings, P=S deoxy core, chemistry not fully specified) [compound 15347] is ____. > 70%
